# System: EA.hy.926
# MEASUREMENT PROTOCOL: Arginine uptake by endothelial cell line EA.hy.926
# Format: cell-based
# CONDITION SUMMARY: Homo sapiens, compound at 10^-7 M (bottom value), read-out: Arg uptake (% control) from FIG. 4
QUANTITY KIND: activity at 0.1 µM (%)

N=C(NCc1ccccc1)Nc1ccc(C(N)=O)cc1OCc1ccccc1
160
COc1ccccc1CNC(=N)Nc1ccc(C(N)=O)cc1OCC1CCC1
122
N=C(NCC1CCCCC1)Nc1ccc(C(N)=O)cc1OCC1CCCCC1
127
Cc1ccc(CNC(=N)Nc2ccc(C(N)=O)cc2OCC2CCC2)cc1
160
N=C(NCc1ccccc1)Nc1ccc(C(N)=O)cc1OCC1CCCCC1
190
N=C(NCc1cc(C(F)(F)F)cc(C(F)(F)F)c1)Nc1ccc(C(N)=O)cc1OCC1CCC1
108
N=C(NCc1cc(C(F)(F)F)cc(C(F)(F)F)c1)Nc1ccc(C(N)=O)cc1OCC1CCCCC1
188
CC(CNC(=N)Nc1ccc(C(N)=O)cc1OCC1CC1)c1ccccc1 (centres unmarked)
133
CC(C)CNC(=N)Nc1ccc(C(N)=O)cc1OCC1CCCCO1 (centres unmarked)
146
N=C(NCc1ccco1)Nc1ccc(C(N)=O)cc1OCc1ccccc1
126
N=C(NCc1ccc2c(c1)OCO2)Nc1ccc(C(N)=O)cc1OCC1CCCCO1 (centres unmarked)
131
N=C(NCc1ccccc1)Nc1ccc(C(N)=O)cc1OCC1CCCCO1 (centres unmarked)
110
N=C(Nc1ccc(C(N)=O)cc1OCC1CCC1)NC1CCCCC1
134
N=C(NCc1ccc(Cl)c(Cl)c1)Nc1ccc(C(N)=O)cc1OCC1CCCCC1
92
